Experiment: physchem
Task for the reader: assign each of the following compounds its reported chromatographic logD.
Answers are plain numbers.

Sample answers from the record:
[[record]]
compound = "COc1cccc(-c2cccc(C3(C)N=C(N)CCO3)c2)c1 (stereo not drawn)"
test_result = 2.5

[[record]]
compound = "COc1ccc(C2(c3cccc(-c4cncnc4)c3)N=C(N)n3nc(C)cc32)cc1 (stereo not drawn)"
test_result = 2.3

[[record]]
compound = "CCC1(c2cccc(-c3cncnc3)c2)N=C(N)c2ccccc2O1 (stereo not drawn)"
test_result = 1.8

[[record]]
compound = "CC1(c2cccc(-c3cncnc3)c2)N=C(N)c2c(F)cccc2O1 (stereo not drawn)"
test_result = 1.6

[[record]]
compound = "CC1(c2cccc(-c3cccnc3)c2)N=C(N)c2c(F)cccc2O1 (stereo not drawn)"
test_result = 2.3


Report chromatographic logD for every entry below.
1. CC1(c2cccc(-c3cncnc3)c2)N=C(N)c2ccccc2S1 (stereo not drawn)
2. COc1ccc(C2(c3cccc(-c4cncnc4)c3)N=C(N)c3nc(C)sc32)cc1 (stereo not drawn)
3. C[C@]1(c2cccc(-c3cncc(F)c3)c2)N=C(N)[C@H]2CCCCN21 (relative stereo)
4. C[C@]1(c2cccc(-c3cncc(F)c3)c2)N=C(N)[C@@H]2CCCCN21 (relative stereo)
5. CC1(c2cccc(-c3cccnc3)c2)N=C(N)c2ccccc2O1 (stereo not drawn)

Response given:
1: 1.7; 2: 2; 3: 2; 4: 1.5; 5: 1.8

Give chromatographic logD for each listed item.
1. COc1cccc(-c2cccc(C3(C)N=C(N)CCS3)c2)c1 (stereo not drawn)
2. COc1ccc(C2(c3cccc(-c4cccnc4)c3)CC(OC)C(N)=N2)cc1 (stereo in doubt; form 4)

Response given:
1. 2.5
2. 1.8
